Assay: qHTS Assay for Lipid Storage Modulators in Drosophila S3 Cells;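 further: cells counted by Cell Tracker Red CMTPX staining in the red channel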
Details: BODIPY lipid droplet fluorescence, 18-24 h, cells fed with added oleic acid; measured here: cell count max response
From the text: NIH Molecular Libraries Probe Production Centers Network [MLPCN] NIH Chemical Genomics Center [NCGC] […] Triacsin C (Sigma-Aldrich T-4540), an inhibitor of long-chain fatty acyl CoA synthetase that blocks synthesis of triglycerides, was used as a positive control for lipid under-storage. […] Fluorescence was detected by excitation of the fluorophores with a 488-nm laser on an Acumen Explorer (TTP Lab Tech). […] Cells were detected using channel 3 (575-640 nm) with 5-um width and 100-um depth filters. […]
Screen size: about 320,000 compounds; about 2,100 (0.66%) were called active. Not shown: some 53% with an inconclusive outcome. What follows is part of a selection rich in actives, with near analogues and random picks from the rest.
property: cell number change (%)
// note: answer is a bare numeric in %

Reference set, count: 3
[
  {
    "compound": "CCn1cc(C(=O)N(C)CC(OC)OC)c(=O)c2cc(S(=O)(=O)N3CCOCC3)ccc21",
    "cell number change (%)": 3.42
  },
  {
    "compound": "CN(C(=O)COc1ccccc1)C1CCS(=O)(=O)C1 (centres undefined)",
    "cell number change (%)": -15.6
  },
  {
    "compound": "Cc1cc(C)c2c(N)c(C(=O)c3ccc(Br)cc3)oc2n1",
    "cell number change (%)": -13.1
  }
]

## Input Query (compound): "CNc1c(NS(=O)(=O)c2cc(OC)ccc2OC)c(=O)oc2ccccc12" ; field requested: cell number change
## Output -19.8

## Input Please report the recorded cell number change for O=C(NCc1cccc(C(F)(F)F)c1)C1CCCN(c2ncccn2)C1 (centres undefined) .
## Output 23.6

## Input Would you mind telling me what cell number change value was observed for "CCc1cccc(NS(=O)(=O)c2ccc(-n3cccn3)cc2)c1" ?
## Output 18.7
